System: SNB-75
experiment: NCI tumour cell line growth inhibition, 48 h
The source made the active and inactive calls. No stated cut-off is given here; in the data, active = GI50 up to about 1.1 µM and inactive = higher.
property_label: GI50

Below, each entry is followed by its recorded GI50 result.
| molecule | target_system | property_label | reported |
| --- | --- | --- | --- |
| CC(=O)NC1C(OCc2ccccc2)OC(COC(=O)CCCCCCCCCCNc2ccc([N+](=O)[O-])c3[nH]c4ccccc4c(=O)c23)C(O)C1OC(C)C(=O)NC(C)C(=O)NC(CCC(N)=O)C(=O)OCc1ccccc1 (stereo not drawn) | SNB-75 | GI50 | > 100 µM (inactive) |
| CC1(C)C=CC(=O)C(O)C(C)(C)C1=O (stereo not drawn) | SNB-75 | GI50 | 38.7 µM (inactive) |
| CC(=O)O[C@H]1CCC2[C@@H]3CCC4=C(O)C(=O)C(C#N)C[C@]4(C)C3CC[C@@]21C (stereo partly drawn) | SNB-75 | GI50 | 12.6 µM (inactive) |

Entry Oc1cc(-c2ccccn2)nc2cc(F)ccc12 under SNB-75 had GI50 of 26.5 µM (inactive)

For the molecule CCOC(=O)C1(C#N)C(c2ccccc2)CC(O)(c2ccc(Cl)cc2)C(C(=O)c2ccc(Cl)cc2)C1c1ccccc1 (stereo not drawn) , the measured GI50 on SNB-75 was 21.1 µM (inactive)

Form: item COc1cccc2c1C(=O)c1c(O)c3c(c(O)c1C2=O)CC(O)(C(C)=O)CC3OC1CC([N+](C)(C)C)C(O)C(C)O1 (stereo not drawn) ; test system SNB-75; GI50: 52.2 µM (inactive)

Test item CNC(=S)N/N=C(\C)c1nc2cccnc2[nH]1 ; SNB-75; reported GI50 was > 70.6 µM (inactive)

Record COc1ccc(/C=C/C(=N/NC(=O)N/N=C(/C=C/c2ccc(OC)cc2)C(C)(C)CN2CCCCC2)C(C)(C)CN2CCCCC2)cc1 / SNB-75, GI50 recorded as 1.37 µM (inactive)
